- Test summary: recombinant barcode read abundance after kanamycin selection (control-corrected) (log10(CPM+1)); higher = more efficient recombination; sequences stand for … in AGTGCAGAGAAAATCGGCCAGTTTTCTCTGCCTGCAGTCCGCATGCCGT…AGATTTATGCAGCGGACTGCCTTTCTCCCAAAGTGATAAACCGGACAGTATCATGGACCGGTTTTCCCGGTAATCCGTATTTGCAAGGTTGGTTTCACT; site = the 11-nt target;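 further: IS621 recombinase and bridge RNA in Escherichia coli cells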
Readout name: recombinant barcode read abundance (log10)

{"columns": ["Construct sequence", "Assay result"],
 "data": [
  ["CTAAGCTCTTGGGTTCTAACCTGTTGCTG (site CTAAGCTCTGA)", 0.23],
  ["TAGAATCCTTGGGTTCTAACCTGTTGCAT (site TAGAATCCTGT)", 0.0579],
  ["CCAAGGACTTGGGTTCTAACCTGTTGCCT (site CCAGGGACTAG)", 0.47],
  ["AGTTACACTTGGGTTCTAACCTGTTGCCT (site AGTTTCACTAG)", 0.0317],
  ["GCATGAGCTTGGGTTCTAACCTGTTGCCT (site GCCTGAGCTAG)", 0.122],
  ["TCGTGAGCTTGGGTTCTAACCTGTTGCCT (site TCGTGAGCTAG)", 0.226],
  ["AGCCGTACTTGGGTTCTAACCTGTTGCCT (site AGTCGTACTAG)", 0.0183],
  ["GAACTCCCTTGGGTTCTAACCTGTTGCGG (site TGTTGGTCTAA)", 0.0984],
  ["ACTGATTCTTGGGTTCTAACCTGTTGCCT (site ACTGATCCTAG)", 0.0546],
  ["AACTGAACTTGGGTTCTAACCTGTTGCCT (site AACTTAACTAG)", 0.0689],
  ["CGAGGTTCTTGGGTTCTAACCTGTTGCCT (site CGCGGTTCTAG)", 0.212],
  ["GAACTCCCTTGGGTTCTAACCTGTTGCGG (site GAACTCCCTCC)", 0.758],
  ["CTGGCGCCTTGGGTTCTAACCTGTTGCAT (site CTGGCGCCTAT)", 0.908],
  ["GCTGGGTCTTGGGTTCTAACCTGTTGCTT (site GCCGGGTCTAA)", 0.284],
  ["GACTCTCCTTGGGTTCTAACCTGTTGCTT (site GACTCTCCTAG)", 0.029],
  ["ACCCAATCTTGGGTTCTAACCTGTTGCCT (site ACCCAAACTAG)", 0.266],
  ["CCAAGGGCTTGGGTTCTAACCTGTTGCTG (site CCAAGGGCTCC)", 0.136],
  ["GAGGGCACTTGGGTTCTAACCTGTTGCCA (site GAGGGCACTTG)", 0.917],
  ["CTATGTGCTTGGGTTCTAACCTGTTGCTT (site CTATGTGCTAT)", 0.746],
  ["CAGCGGCCTTGGGTTCTAACCTGTTGCCT (site CAGTGGCCTAG)", 0.718],
  ["ACCGAGTCTTGGGTTCTAACCTGTTGCCT (site AGCGAGTCTAG)", 0.164],
  ["GGCACGGCTTGGGTTCTAACCTGTTGCCT (site GGCACTGCTAG)", 0.11],
  ["TTGGTCCCTTGGGTTCTAACCTGTTGCCT (site TTGGTACCTAG)", 0.565],
  ["GTAAGTTCTTGGGTTCTAACCTGTTGCCT (site GCAAGTTCTAG)", 0.258],
  ["CTCGTGACTTGGGTTCTAACCTGTTGCCT (site CTCGTTACTAG)", 0.335],
  ["CGGTCTGCTTGGGTTCTAACCTGTTGCAT (site GCTAGGACTCA)", 0.217],
  ["CGGAAGACTTGGGTTCTAACCTGTTGCCT (site CGGAAGCCTAG)", 0.121],
  ["TCTTGTCCTTGGGTTCTAACCTGTTGCGT (site TCTTGTCCTTC)", 0.0168],
  ["ATGCCTACTTGGGTTCTAACCTGTTGCCT (site ATGCCCACTAG)", 0.0532],
  ["TTCAAGTCTTGGGTTCTAACCTGTTGCCT (site TTCAAGCCTAG)", 0.198],
  ["AACCCTACTTGGGTTCTAACCTGTTGCCT (site GACCCTACTAG)", 0.0455],
  ["TTGAGGCCTTGGGTTCTAACCTGTTGCCT (site CTGAGGCCTAG)", 0.0268],
  ["GTGTCAGCTTGGGTTCTAACCTGTTGCCT (site GTGTCAACTAG)", 0.166],
  ["GAGTCGTCTTGGGTTCTAACCTGTTGCTT (site GAGCCATCTAA)", 0.402],
  ["ACTACTACTTGGGTTCTAACCTGTTGCCT (site AATACTACTAG)", 0.227]
]}
